Assay: in vitro
Parameters: Viability of infected HeLa host cells, resazurin conversion, bulk resorufin fluorescence relative to DMSO
Conditions: human, hela cells; bulk resorufin, mean of 3
# if measured viability at 28.5 h, 0.111 µM < 90%: met  # else: not met

Before answering, review these 8 worked examples.
>  <MOLECULE>
O=C(CC1CCN(CCc2ccccc2)CC1)Nc1cccc(-n2cccn2)c1 [c4e]

>  <GROUP>
not met

$$$$
>  <MOLECULE>
CN(C(=O)c1ccc(Cl)c(Cl)c1)[C@H]1CCC[C@H]1N1CCCC1 [c12e]

>  <GROUP>
not met

$$$$
>  <MOLECULE>
CCCCc1ccc(Nc2csc(N)n2)cc1 [c11e]

>  <GROUP>
not met

$$$$
>  <MOLECULE>
O=C(N/N=C/c1ccc(Sc2cccc3cccnc23)o1)c1cccc(F)c1 [c10e]

>  <GROUP>
not met

$$$$
>  <MOLECULE>
FC(F)(F)CCN1CCC2(CC1)NCCc1c2[nH]c2ccc(Cl)cc12 [c34e]

>  <GROUP>
not met

$$$$
>  <MOLECULE>
N#Cc1c(Nc2cccc(C(F)(F)F)c2)sc(C(=O)c2ccc3c(c2)OCO3)c1N [c8e]

>  <GROUP>
met

$$$$
>  <MOLECULE>
CC(Cc1nc(-c2nccn2C)cs1)n1cc(Cl)cn1 (centres unmarked) [c14e]

>  <GROUP>
not met

$$$$
>  <MOLECULE>
CCOc1ccsc1C(=O)NC1Cc2ccccc2C1 [c16e]

>  <GROUP>
met

$$$$

Take the molecule CCC(c1ccc(F)cc1)N(C)C(=O)Cn1cc(C(=O)NC2CCCCC2)ccc1=O (centres unmarked) [c44e] and say whether its viability at 28.5 h, 0.111 µM is less than 90%.
met

Is 90% strictly greater than the molecule's reported viability at 28.5 h, 0.111 µM? molecule: Oc1c(CN2CCN(c3ccc(F)cc3)CC2)cc(Br)c2cccnc12 [c43e]
met

I wonder whether O=C(NCCc1c[nH]c2ccc(Cl)cc12)c1c(F)ccc(Cl)c1F [c42e] has viability at 28.5 h, 0.111 µM below 90%. Can you tell?
not met
